test system: OVCAR-5 ovarian; assay: NCI tumour cell line growth inhibition, 48 h
Measure: TGI

[[record]]
molecule = "CCC(=O)c1c(C(F)(F)F)n([O-])c2cc(N3CCNCC3)c(F)cc2[n+]1=O"
experimental_result = "27.3 µM"

[[record]]
molecule = "CN1CCN(CC(=O)N2CCCn3c2nc2ccccc2c3=O)CC1"
experimental_result = "> 100 µM"

[[record]]
molecule = "COc1ccc2c(c1)OCCCN(C)OC2c1ccccc1 (stereo not drawn)"
experimental_result = "> 100 µM"


* * *

tested on: HL-60(TB) leukemia; experiment: NCI tumour cell line growth inhibition, 48 h
Documented TGI across a set of compounds
Measure: TGI (µM)

[[record]]
compound = "Clc1ccc(Nc2nnc(CNc3ccccc3)c3ccccc23)cc1"
value_prefix = "="
experimental_result = 13

[[record]]
compound = "N#C/C(=C/NC(=S)NCc1ccccc1)C(N)=O"
value_prefix = ">"
experimental_result = 100

[[record]]
compound = "O=C(OCc1nc2nc(Cl)nc(N3CCOCC3)c2[nH]1)n1ccnc1"
value_prefix = "="
experimental_result = 4.55

[[record]]
compound = "CCCCCCCCCC(CCCC(O)CC(=O)O)OC1OC(COC2OC(C)C(O)C(O)C2O)C(O)C(O)C1OC1OC(CO)C(O)C(O)C1OC1OC(C)C(OC(=O)CC(C)C)C(O)C1O (stereo not given)"
value_prefix = ">"
experimental_result = 60

[[record]]
compound = "CCCCCCN1C(=O)CC(=O)N(CCCCCC)S1(=O)=O"
value_prefix = "="
experimental_result = 48.9

[[record]]
compound = "O=C1C(Br)=CC2C1C1C3CCC3C2(Br)C12OCCO2 (stereo not given)"
value_prefix = "="
experimental_result = 5.66

[[record]]
compound = "O=C(O)COc1ccc(C(=O)/C(SS/C(C(=O)c2ccc(OCC(=O)O)c(Cl)c2Cl)=C2\\C=C(c3ccc(F)cc3)SS2)=C2/C=C(c3ccc(F)cc3)SS2)c(Cl)c1Cl"
value_prefix = "="
experimental_result = 6.03

[[record]]
compound = "Cc1cc2nc(N3C(=O)/C(=C/c4ccc(Oc5ccccc5)cc4)N=C3c3ccccc3)sc2cc1C"
value_prefix = "="
experimental_result = 63.8

[[record]]
compound = "CC(C)/C=N\\N1C(N)=C(C#N)C(C#N)(C#N)C1C(C)C (stereo not given)"
value_prefix = "="
experimental_result = 91.7

[[record]]
compound = "COc1ccc(C2SC(N)=Nc3c2c(C)nn3C(=O)c2ccccc2O)cc1 (stereo not given)"
value_prefix = "="
experimental_result = 5.21

[[record]]
compound = "CS(=O)(=O)CCN(CC#N)Cc1ccc(-c2ccc3ncnc(Nc4ccc(OCc5cccc(F)c5)c(Cl)c4)c3c2)o1"
value_prefix = ">"
experimental_result = 25

[[record]]
compound = "Nc1ccc(Cc2ccc(N=Cc3ccc(OCc4cccc(COc5ccc(C=Nc6ccc(Cc7ccc(N)cc7)cc6)cc5)n4)cc3)cc2)cc1"
value_prefix = ">"
experimental_result = 100

[[record]]
compound = "CC1CC(NN)=Nc2ccccc2N1 (stereo not given)"
value_prefix = ">"
experimental_result = 100

[[record]]
compound = "CCN(CC)CCCNc1[nH]ncc2cc3c(nc4ccc(OC)cc43)c(C)c12"
value_prefix = "="
experimental_result = 0.0166

[[record]]
compound = "CC(=O)c1c2c(cc3c1CC1(Cc4cc5c(cc4C1)CCCC5)C3)CCCC2"
value_prefix = "="
experimental_result = 31.4

[[record]]
compound = "COC(=O)c1cc(C)n(CN(Cn2nc(C(=O)OC)cc2C)c2ccccc2)n1"
value_prefix = "="
experimental_result = 47.5

[[record]]
compound = "COc1ccc(C(CC(C)=O)c2c(O)c3ccccc3oc2=O)cc1OC (stereo not given)"
value_prefix = ">"
experimental_result = 100

[[record]]
compound = "COc1ccc(C2SCc3nc4ccccc4n32)cc1 (stereo not given)"
value_prefix = "="
experimental_result = 5.43

[[record]]
compound = "COc1ccc(C(=O)O)c(Br)c1OCc1ccccc1"
value_prefix = ">"
experimental_result = 100

[[record]]
compound = "COc1ccc2c(C)cc(C)nc2n1"
value_prefix = ">"
experimental_result = 100


* * *

system: HCT-15 colon; test: NCI tumour cell line growth inhibition, 48 h
Documented TGI across a set of compounds
Measure: TGI

[[record]]
compound = "COc1cc(/C=C2\\C[C@H]3[C@@H]4CC=C5C[C@@H](OC(C)=O)CC[C@]5(C)[C@H]4CC[C@]3(C)\\C2=N\\O)cc(OC)c1OC"
measure = "TGI"
experimental_result = "> 100 µM"

[[record]]
compound = "N#Cc1c(N2CCCC2)ncn(-c2ccccc2)c1=S"
measure = "TGI"
experimental_result = "> 100 µM"

[[record]]
compound = "CC(=O)N1C(Nc2ccccc2)CCN1c1ccccc1 (centres undefined)"
measure = "TGI"
experimental_result = "> 10 µM"

[[record]]
compound = "Clc1nc(Cl)c2ncn(C/C=C\\COc3cccc(OC/C=C\\Cn4cnc5c(Cl)nc(Cl)nc54)c3)c2n1"
measure = "TGI"
experimental_result = "> 100 µM"


* * *

Documented TGI across a set of molecules
test system: U251 CNS; test: NCI tumour cell line growth inhibition, 48 h
Measure: TGI (µM)

[[record]]
molecule = "CC1=C(C(=O)CC(=O)C(=O)Nc2cccc(C)c2C)Sc2ccccc2N1"
measure = "TGI"
units_text = "µM"
value_prefix = ">"
experimental_result = 100

[[record]]
molecule = "O=C(Cc1nc(-c2ccccc2)cc(=O)n1-c1ccccc1Cl)c1ccncc1"
measure = "TGI"
units_text = "µM"
value_prefix = ">"
experimental_result = 100

[[record]]
molecule = "CCn1c(-c2nonc2N)nc2c(C#CC(C)(C)O)nc(CN3CCCC3)cc21"
measure = "TGI"
units_text = "µM"
value_prefix = ">"
experimental_result = 25

[[record]]
molecule = "O=[N+]([O-])c1ccc(OCc2nnc(CCCCCCCCc3nnc(COc4ccc([N+](=O)[O-])cc4)o3)o2)cc1"
measure = "TGI"
units_text = "µM"
value_prefix = ">"
experimental_result = 100

[[record]]
molecule = "CCCc1cn2c(/C=N/N=C(N)N)c(-c3c(OC)ccc(OC)c3[N+](=O)[O-])nc2s1"
measure = "TGI"
units_text = "µM"
value_prefix = "="
experimental_result = 18.7

[[record]]
molecule = "CC(C)C1(Cl)CCC2C3(C)CCCC(C)(C(=O)O)C3CC(Cl)C2(Cl)C1Cl (centres undefined)"
measure = "TGI"
units_text = "µM"
value_prefix = "="
experimental_result = 62.5

[[record]]
molecule = "CC(C)(C)C1=NC(=P(c2ccccc2)(c2ccccc2)c2ccccc2)C(=O)O1"
measure = "TGI"
units_text = "µM"
value_prefix = ">"
experimental_result = 100

[[record]]
molecule = "COc1cccc2c(=O)c3c(n(C)c12)OC(C(C)C)C3 (centres undefined)"
measure = "TGI"
units_text = "µM"
value_prefix = ">"
experimental_result = 100

[[record]]
molecule = "O=C(OCc1nc2nc(Cl)nc(N3CCOCC3)c2[nH]1)n1ccnc1"
measure = "TGI"
units_text = "µM"
value_prefix = "="
experimental_result = 4.32

[[record]]
molecule = "CC1CC(NN)=Nc2ccccc2N1 (centres undefined)"
measure = "TGI"
units_text = "µM"
value_prefix = ">"
experimental_result = 100

[[record]]
molecule = "COc1ccc(C2C(C#N)=C(N)Oc3c2sc2c(F)cccc32)cc1 (centres undefined)"
measure = "TGI"
units_text = "µM"
value_prefix = "="
experimental_result = 11.8

[[record]]
molecule = "COc1ccc(C2SCc3nc4ccccc4n32)cc1 (centres undefined)"
measure = "TGI"
units_text = "µM"
value_prefix = "="
experimental_result = 85.4

[[record]]
molecule = "C1OC1C1CO1 (centres undefined)"
measure = "TGI"
units_text = "µM"
value_prefix = ">"
experimental_result = 100

[[record]]
molecule = "O=[As]O"
measure = "TGI"
units_text = "µM"
value_prefix = ">"
experimental_result = 52.8

[[record]]
molecule = "C=CCCCCCCCC(O)C1C[C@H](O)C(CCCCC)O1 (some centres undefined)"
measure = "TGI"
units_text = "µM"
value_prefix = "="
experimental_result = 31.3

[[record]]
molecule = "NC(Cc1ccc(O)c(O)c1)P(=O)(O)O (centres undefined)"
measure = "TGI"
units_text = "µM"
value_prefix = ">"
experimental_result = 100

[[record]]
molecule = "N#Cc1c2c(c(Nc3ccc(F)cc3)n3c1nc1ccccc13)CCCC2"
measure = "TGI"
units_text = "µM"
value_prefix = ">"
experimental_result = 100

[[record]]
molecule = "CN(C)c1nc(N)nc(CCl)n1"
measure = "TGI"
units_text = "µM"
value_prefix = ">"
experimental_result = 100

[[record]]
molecule = "COc1ccc2c(C)cc(C)nc2n1"
measure = "TGI"
units_text = "µM"
value_prefix = ">"
experimental_result = 100

[[record]]
molecule = "CCC(=O)c1c(C(F)(F)F)n([O-])c2cc(N3CCNCC3)c(F)cc2[n+]1=O"
measure = "TGI"
units_text = "µM"
value_prefix = "="
experimental_result = 19.9

[[record]]
molecule = "O=C(NCc1ccccc1)c1cc2ccc(O)c(O)c2cn1"
measure = "TGI"
units_text = "µM"
value_prefix = "="
experimental_result = 52.8

[[record]]
molecule = "Cc1cc(S(=O)(=O)NC2=NCC(C)NN2)c(S)cc1Cl (centres undefined)"
measure = "TGI"
units_text = "µM"
value_prefix = ">"
experimental_result = 100

[[record]]
molecule = "O=C1C(Br)=CC2C1C1C3CCC3C2(Br)C12OCCO2 (centres undefined)"
measure = "TGI"
units_text = "µM"
value_prefix = "="
experimental_result = 13

[[record]]
molecule = "Cn1ccnc1Sc1ccc(/C=N\\NC(=O)c2cccc(F)c2)cc1[N+](=O)[O-]"
measure = "TGI"
units_text = "µM"
value_prefix = "="
experimental_result = 43.7

